Hello, the source for this data is patent US20240247080A1, in case you need it.

Molecular target: T1, human neuropeptide Y2 (NPY2) receptor (human, UniProt P49146 1-381)
T1 sequence (looked up): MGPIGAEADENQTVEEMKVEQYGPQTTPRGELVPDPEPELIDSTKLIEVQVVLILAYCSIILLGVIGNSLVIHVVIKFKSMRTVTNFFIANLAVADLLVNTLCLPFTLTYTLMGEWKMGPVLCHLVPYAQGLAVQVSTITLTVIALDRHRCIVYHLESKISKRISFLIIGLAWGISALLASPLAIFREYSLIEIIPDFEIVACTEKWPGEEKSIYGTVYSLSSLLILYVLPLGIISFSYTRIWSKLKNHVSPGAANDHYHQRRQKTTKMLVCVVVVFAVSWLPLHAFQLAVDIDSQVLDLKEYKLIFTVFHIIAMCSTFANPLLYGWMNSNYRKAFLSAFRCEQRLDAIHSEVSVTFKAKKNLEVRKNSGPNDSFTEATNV
Assay: cell-based or functional assay

>  <BINDER>
YXEGTFTSDYSIXLEKQAQXAFVQWLIKGGPSSYVSLRHYYNWLTRQRY (Aib at 2, 13, 20; K28 side chain: C20DA-gGlu-gGlu-gGlu-gGlu-gGlu-gGlu-eLys; C-terminal NH2) [Compound 15]

>  <EC50, CreLuc assay, 0.5% hP, nM>
6.01

$$$$
>  <BINDER>
YXEGTFTSDYSIXLEEQAQXAFVQWLIKGGPSSGASLRHYYNWLTRQRY (Aib at 2, 13, 20; K28 side chain: C20DA-gGlu-gGlu-Glu-gGlu-gGlu-gGlu-eLys; C-terminal NH2) [Compound 30]

>  <EC50, CreLuc assay, 0.5% hP, nM>
13.3

$$$$
>  <BINDER>
YXEGTFTSDYSIXLEKQAQXAFVQWLIKGGPESGASLRHYYNWLTRQRY (Aib at 2, 13, 20; K28 side chain: C20DA-gGlu-gGlu-gGlu-gGlu-gGlu-gGlu-eLys; C-terminal NH2) [Compound 37]

>  <EC50, CreLuc assay, 0.5% hP, nM>
9.53

$$$$
